molecular target: aldose reductase (Bos taurus, UniProt P16116); construct: partially purified aldose reductase enzyme obtained from calf lens; from tissue; host or cells: calf lens; test: inhibition of aldose reductase enzyme activity (partially purified enzyme from calf lens); type: biochemical; details: 10^-6 M; partially purified aldose reductase from calf lens
Description: […]
inhibition at 1 µM for assorted molecules
Report the figure in % without appending any unit label.

Study these solved cases before continuing.
[ask] Need inhibition at 1 µM of O=C1NC(=O)C2(N1)C(=O)N(Cc1cccnc1)c1c(Cl)cc(Cl)cc12 (centres unmarked) , thanks.
[reply] 81

[ask] Need inhibition at 1 µM of Nc1cc(Cl)cc2c1NC(=O)C21NC(=O)NC1=O (centres unmarked) , thanks.
[reply] 72

[ask] Need inhibition at 1 µM of Nc1ccc2c(c1)NC(=O)C21NC(=O)NC1=O (centres unmarked) , thanks.
[reply] 27

[ask] Need inhibition at 1 µM of O=C1NC(=O)C2(N1)C(=O)Nc1cnccc12 (centres unmarked) , thanks.
[reply] 49

Then there is this molecule:
[ask] Need inhibition at 1 µM of O=C1NC(=O)C2(N1)C(=O)N(Cc1cccnc1)c1ccc(F)cc12 (centres unmarked) , thanks.
[reply] 71
